B1: BTBD10 (parent)
chain: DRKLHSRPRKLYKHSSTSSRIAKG

- Variants of: B1
- protocol.description: protein stability index of a GFP-peptide fusion (GPS, HEK-293T) (PSI 1-6); higher = more stable;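 note: lentivirally expressed fusions sorted by FACS into six bins by GFP to DsRed ratio, PSI derived from sequencing read proportions per bin multiplied by bin number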
- test.conditions: c terminus: a fixed tail appended
assay.metric: protein stability index
Just the number.

Some solved cases for reference:
variant: R7T
assay.metric: protein stability index
recorded.result: 4.31

variant: H5Q
assay.metric: protein stability index
recorded.result: 3.69

variant: K13R
assay.metric: protein stability index
recorded.result: 3.74

variant: P8D
assay.metric: protein stability index
recorded.result: 4.51

variant: G24C
assay.metric: protein stability index
recorded.result: 3.3

protein stability index in this record for `Y12A` : 4.54

protein stability index in this record for `H5P` : 4.5

protein stability index in this record for `S16L` : 3.92

protein stability index in this record for `R2N` : 3.96

protein stability index in this record for `S15L` : 3.71

protein stability index in this record for `S19I` : 3.7

protein stability index in this record for `K13D` : 4.23

protein stability index in this record for `R9N` : 4.13

protein stability index in this record for `K13E` : 4.47

protein stability index in this record for `G24L` : 3.28

protein stability index in this record for `P8C` : 4.03

protein stability index in this record for `A22P` : 3.99

protein stability index in this record for `R2D` : 4.04

protein stability index in this record for `I21A` : 3.5

protein stability index in this record for `S6D` : 4.69

protein stability index in this record for `T17D` : 4.54

protein stability index in this record for `S6I` : 3.58
